B1: BRF1 (parent)
chain: FVESSGGGSSAVGQFVSLDGAGKT

variants of: B1; test: protein stability index of a GFP-peptide fusion (GPS, HEK-293T) (PSI 1-6); higher = more stable; details: c terminus: a fixed tail appended;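 further: lentivirally expressed fusions sorted by FACS into six bins by GFP to DsRed ratio, PSI derived from sequencing read proportions per bin multiplied by bin number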
PARAMETER: protein stability index
No unit in the answer, only the number.

In the examples that follow, each entry is paired with its recorded protein stability index.
variant_notation=S5A assay_value=2.57
variant_notation=T24A assay_value=2.98
variant_notation=S9A assay_value=2.2
variant_notation=V12H assay_value=2.25
variant_notation=A11K assay_value=1.41
variant_notation=V16S assay_value=2.83
variant_notation=V12W assay_value=3.19
variant_notation=A21W assay_value=1.73

Now, please, on to the next variant.
Task item: So what does the record say about protein stability index for A21H ?
Reply: 2.13
